Reported 10 microM no FAD (array fluorescence of bound diaphorase) values for a set of sequences
Test system: diaphorase
Assay: fluorescently labeled diaphorase binding to peptide array with or without excess FAD
Details: 10 micromolar labeled diaphorase, no FAD; 65535 is detector saturation
METRIC NAME: 10 microM no FAD (array fluorescence of bound diaphorase)

{"columns": ["MACROMOLECULE SEQUENCE", "TARGET OR TEST SYSTEM", "RECORDED VALUE"],
 "data": [
  ["RWRYYWKSEGSG [array peptide with C-terminal GSG linker]", "diaphorase", 65535],
  ["RLYPQGYGGSG [array peptide with C-terminal GSG linker]", "diaphorase", 65535],
  ["RNWYGGSG [array peptide with C-terminal GSG linker]", "diaphorase", 65535],
  ["RQYQKHSYAKFSGSG [array peptide with C-terminal GSG linker]", "diaphorase", 57203.5],
  ["WLDLGVFPYQHLGSG [array peptide with C-terminal GSG linker]", "diaphorase", 25700.5]
]}
